- Test system: HL-60(TB) leukemia
- Measurement description: NCI-60 one-dose screen, 48 h (100 = growth as untreated, 0 = no growth, -100 = all killed)
- Study conditions: 10 µM unless noted
Compounds without any hit were thinned out: in the full panel of roughly 83,000, 20% have a hit.
Assay metric: growth (%)
Numbers only, in %.

The cases that follow already have their growth on record.
Compound	growth / %
COc1ccc2nc3cc(Cl)ccc3c(NCCN)c2c1	-51.5
COC(=O)c1ccc2[nH]c(O)c(C(=Nc3ccc(N(C)C(=O)CN4CCN(C)CC4)cc3)c3ccc(N)cc3)c2c1	110
CCCC[C@@H](C=O)NC(=O)[C@H](CC(C)C)NC(=O)[C@H](CC(C)C)NC(=O)OCc1ccccc1	-30.1
C=C1C(=O)O[C@H]2[C@H]1CC/C(COC(=O)CCCCC(=O)OC/C1=C/CC[C@@]3(C)O[C@H]3[C@H]3OC(=O)C(=C)[C@@H]3CC1)=C\CC[C@@]1(C)O[C@@H]21	2.37
CCCCCO/N=C\c1c2c(O)c3c(O)c(C)c4c(c3c1O)C(=O)C(C)(O/C=C\C(OC)C(C)C(OC(C)=O)C(C)C(O)C(C)C(O)C(C)/C=C\C=C(\C)C(=O)N2)O4 (configuration not stated)	-6.96

Dear colleague, could you please provide growth for the compounds listed below?
1. CCCC(=O)Oc1ccc(/C(=C(/CC)Cc2ccccc2)c2ccc(OCCN3CCCC3)cc2)cc1
2. COc1ccc(CCN2CCC(CN(C)Cc3cnn(-c4ccccc4)c3)CC2)cc1

1. 89.2
2. 6.41

====

- System: T-47D breast
- Measurement description: NCI-60 one-dose screen, 48 h
- Study conditions: 10 µM unless noted
About 83,000 compounds went through this panel and 20% of them were active in at least one assay; those are over-represented in the sample as a whole. Active and inactive are the calls of the source. How the source made its calls: active means growth percent below 10; inactive means the rest.
Just give me one of these, please: T = active, F = inactive

Answered cases to consult:
>>> print(df.to_string())
                                   compound  classification
0  c1ccc([As]=[As]c2ccccc2)cc1 (stereo unspecified)               T
1       NC(=O)C(Br)CBr (stereo unspecified)               T
2  O=C(NCc1ccc([N+](=O)[O-])cc1)Nc1ccc(S(=O)(=O)F)cc1               F

# lookup: test call for `O=[N+]([O-])c1ccc(/C=C/C=C/c2ccc(S(=O)(=O)F)cc2)c(Cl)c1` F

# lookup: test call for O=C(CC1(O)C(=O)Nc2ccc(F)cc21)c1ccc(C(=O)NCC2CCC3(CC2)OOC2(CCCCC2)OO3)cc1 (stereo unspecified) F

====

- Test system: SF-295 CNS
- Measurement description: NCI-60 one-dose screen, 48 h (100 = growth as untreated, 0 = no growth, -100 = all killed)
- Study conditions: 10 µM unless noted
About 83,000 compounds went through this panel and 20% of them were active in at least one assay; those are over-represented in the sample as a whole. Calls of active or inactive are those of the source. Rule for the calls: active = growth percent below 10; inactive = the rest.
Assay metric: growth

The cases that follow already have their growth on record.
Molecule	growth
CC(C)(C)[Si](C)(C)OC1[C@@H](O[Si](C)(C)C(C)(C)C)[C@@H](CNC(=O)NC(=O)CF)O[C@H]1n1cnc2c(NC(=O)Nc3ccccc3)ncnc21 (stereo partly drawn)	79.5% (inactive)
N#CC1=C(N)Oc2cc3c(cc2C1c1cccs1)OCO3 (stereo not drawn)	4.03% (active)
CC(C)[C@]12O[C@H]1[C@@H]1O[C@]13[C@]1(O[C@H]1C[C@H]1C4=C(CC[C@@]13C)C(=O)OC4)[C@@H]2OC(=O)OC(C)(C)C	-28.7% (active)
CC[C@]12C=CCN3CC[C@@]4(c5ccc(OC)cc5N(C)[C@H]4[C@@](O)(C(=O)OC)[C@@H]1OC(=O)CCCN1CCN(CCCC(=O)O[C@@H]4[C@]5(CC)C=CCN6CC[C@@]7(c8ccc(OC)cc8N(C)[C@H]7[C@@]4(O)C(=O)OC)[C@@H]65)CC1)[C@@H]32	-85.9% (active)
CC1(CF)NC(=O)NC1=O (stereo not drawn)	118% (inactive)
ClCCN(CCCl)c1nc(Cl)c(C2CC(c3ccccc3)=NN2c2ccccc2)s1 (stereo not drawn)	98.6% (inactive)

Dear colleague, could you please provide growth for the molecules listed below?
1. COc1cc(N(CCCl)CCCl)ccc1C=Nc1ccccc1C(=O)O
2. CCN(CC)c1ccc(C=C2C(=O)NC(=S)NC2=O)cc1

1. 98% (inactive)
2. 99.3% (inactive)
